# assay.name: Plasma pharmacokinetics after oral administration of YCHT in control (normal) rats, UHPLC-MS/MS
# Assay type: in vivo, Sprague-Dawley rats
# conditions.used: Sprague-Dawley, rat, in vivo, po, 60 g/kg
Please provide measured half-life for the entries that follow.
One number for each entry, in h.

Before answering, review these 3 worked examples.
molecule	half-life (h)
COc1cc(O)c2c(c1)C(=O)c1cc(C)cc(O)c1C2=O [Physcion]	2.65
COc1cc2ccc(=O)oc2cc1O [Scopoletin]	3.62
O=C(O)c1cc(O)c2c(c1)C(=O)c1cccc(O)c1C2=O [Rhein]	4.64

Here is the next item to consider.
Data request: What value of half-life has been reported for the following molecule? Cc1cc(O)c2c(c1)C(=O)c1cccc(O)c1C2=O [Chrysophanol]
Data returned: 2
